All values here come from patent US9938262B2.

Below, each entry is listed alongside its reported EC50.
target: FSHR (Homo sapiens); construct: expressed in transfected cells; host or cells: CHO (Cho-FSHR-LUC-1-1-43); test: EC50 of cyclic AMP production in CHO FSHR cells + EC20 FSH (Assay A); type: cell-based; details: CHO FSHR cells + EC20 FSH; Table 2; read-out: Assay A EC50 of cyclic AMP production
Sequence (P23945 18-695): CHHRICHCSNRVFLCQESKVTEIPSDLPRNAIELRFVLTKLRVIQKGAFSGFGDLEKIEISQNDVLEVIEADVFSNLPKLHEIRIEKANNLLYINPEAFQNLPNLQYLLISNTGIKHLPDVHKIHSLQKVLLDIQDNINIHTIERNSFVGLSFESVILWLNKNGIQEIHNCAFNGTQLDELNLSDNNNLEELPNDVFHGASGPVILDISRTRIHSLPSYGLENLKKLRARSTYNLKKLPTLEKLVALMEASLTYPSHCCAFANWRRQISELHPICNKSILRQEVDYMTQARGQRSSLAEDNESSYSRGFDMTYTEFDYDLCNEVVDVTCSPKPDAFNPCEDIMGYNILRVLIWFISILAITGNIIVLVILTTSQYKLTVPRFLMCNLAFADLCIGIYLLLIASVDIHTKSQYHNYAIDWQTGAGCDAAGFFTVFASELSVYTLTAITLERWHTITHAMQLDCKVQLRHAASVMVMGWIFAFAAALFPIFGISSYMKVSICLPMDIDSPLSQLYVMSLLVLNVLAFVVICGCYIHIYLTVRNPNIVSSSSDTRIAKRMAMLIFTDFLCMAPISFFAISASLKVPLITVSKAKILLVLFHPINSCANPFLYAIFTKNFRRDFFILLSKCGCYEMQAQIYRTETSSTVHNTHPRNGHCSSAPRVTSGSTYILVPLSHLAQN
Sequence (P01215 25-116 partner): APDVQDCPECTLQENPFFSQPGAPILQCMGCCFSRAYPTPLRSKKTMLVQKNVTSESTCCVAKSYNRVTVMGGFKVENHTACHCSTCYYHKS
Sequence (P01225 19-129 partner): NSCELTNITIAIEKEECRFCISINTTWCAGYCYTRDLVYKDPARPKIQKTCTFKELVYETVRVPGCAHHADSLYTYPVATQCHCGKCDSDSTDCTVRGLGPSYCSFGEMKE

Cc1ccccc1N1CCN(c2ccc(C(=O)NCc3cccc(C(F)(F)F)c3)cc2NC(=O)c2coc(C3CC3)n2)CC1 [Compound 528]; 1000 to 10000 nM
Cc1ccc(C(=O)Nc2cc(C(=O)NCCCN3CCCC3=O)ccc2N2CCC(N(C)c3ccccc3)CC2)o1 [Compound 423]; > 10000 nM
Cc1ccccc1N1CCN(c2ccc(C(=O)NCC(C)CN3CCCC3=O)cc2NC(=O)c2ccco2)CC1 (centres unmarked) [Compound 280]; 100 to 1000 nM
Cc1ccc(C(=O)Nc2cc(C(=O)NCCCN3CCCC3=O)ccc2N2CCN(c3cccc(C)c3C)CC2)o1 [Compound 521]; 100 to 1000 nM
Cc1ccccc1N1CCN(c2ccc(C(=O)NCc3cccc(C(N)=O)c3)cc2NC(=O)c2coc(C3CC3)n2)CC1 [Compound 304]; < 100 nM

Query string: // fetch FSHR (Homo sapiens) EC50 for O=C(NCCCN1CCCC1=O)c1ccc(N2CCN(C(=O)C3CC3)CC2)c(NC(=O)c2coc(C3CC3)n2)c1 [Compound 431]
Result string: > 10000 nM

Query string: // fetch FSHR (Homo sapiens) EC50 for COC(C(=O)Nc1cc(C(=O)NCCCN2CCCC2=O)ccc1N1CCN(c2ccccc2C)CC1)c1ccccc1 (centres unmarked) [Compound 562]
Result string: 100 to 1000 nM

Query string: // fetch FSHR (Homo sapiens) EC50 for Cc1ccc(C(=O)Nc2cc(C(=O)NC[C@H](O)c3ccccc3)ccc2N2CCN(c3ccccc3C)CC2)o1 [Compound 584]
Result string: 1000 to 10000 nM

Query string: // fetch FSHR (Homo sapiens) EC50 for Cc1ccccc1N1CCN(c2ccc(C(=O)NCCCc3ccccc3Cl)cc2NC(=O)c2ccco2)CC1 [Compound 373]
Result string: 1000 to 10000 nM

Query string: // fetch FSHR (Homo sapiens) EC50 for Cc1ccccc1N1CCN(c2ccc(C(=O)NCc3cccc(C(F)(F)F)c3)cc2NC(=O)c2ccco2)CC1 [Compound 527]
Result string: 100 to 1000 nM

Query string: // fetch FSHR (Homo sapiens) EC50 for Cc1ccccc1N1CCN(c2ccc(C(=O)NC[C@H](O)[C@@H](O)CN)cc2NC(=O)c2coc(C3CC3)n2)CC1 [Compound 561]
Result string: 1000 to 10000 nM

Query string: // fetch FSHR (Homo sapiens) EC50 for Cc1ccccc1N1CCN(c2ccc(C(=O)NCc3cccc(CN(C)C)c3)cc2NC(=O)c2coc(C3CC3)n2)CC1 [Compound 348]
Result string: 100 to 1000 nM

Query string: // fetch FSHR (Homo sapiens) EC50 for Cc1cnccc1N1CCN(c2ccc(C(=O)NCCCN3CCCC3=O)cc2NC(=O)c2coc(C3CC3)n2)CC1 [Compound 452]
Result string: 1000 to 10000 nM

Query string: // fetch FSHR (Homo sapiens) EC50 for Cc1ccccc1N1CCN(c2ccc(C(=O)NCC(O)CN3CCCC3=O)cc2NC(=O)c2ccco2)CC1 (centres unmarked) [Compound 467]
Result string: < 100 nM
